Experiment: soluble on expression in E. coli; label from the status in PepcDB or PDB records

| Residue String | soluble on expression in E. coli |
| --- | --- |
| GHMSETYDFLFKFLVIGNAGTGKSCLLHQFIEKKFKDDSNHTIGVEFGSKIINVGGKYVKLQIWDTAGQERFRSVTRSYYRGAAGALLVYDITSRETYNALTNWLTDARMLASQNIVIILCGNKKDLDADREVTFLEASRFAQENELMFLETSALTGENVEEAFVQCARKILNKIESGELDPERMG | soluble |
| MGSSHHHHHHSSGLVPRGSHMGEMLERQKKRLPSKAKYLKYTASITETGNHEADSSVIFRPHHSDVTCSNARRAESRTLPQICSCILLDHGRRTRPEVRTGMVSLHGSFKGFPCFGIRRGISHVLPGQKLRGSCDNWKKRQN | soluble |
| MAHHHHHHSLSILVTRPSPAGEELVSRLRTLGQVAWHFPLIEFSPGQQLPQLADQLAALGESDLLFALSQHAVAFAQSQLHQQDRKWPRLPDYFAIGRTTALALHTVSGQKILYPQDREISEVLLQLPELQNIAGKRALILRGNGGRELIGDTLTARGAEVTFCECYQRCAIHYDGAEEAMRWQAREVTMVVVTSGEMLQQLWSLIPQWYREHWLLHCRLLVVSERLAKLARELGWQDIKVADNADNDALLRALQEG | soluble |

---

Assay: soluble on expression in E. coli; label from the status in PepcDB or PDB records
Measurement Label: soluble on expression in E. coli

| Residue String | Experimental Value |
| --- | --- |
| ENLKLGFLVAQPEEPASQTQWKFADKAGKDLGFEVIKIAVPDGEKTLNAIDSLAASGAKGFVISTPDPKLGSAIVAKARGYDMKVIAVDNQFVNAKGKPMDTVPLVMEAATKIGERQGQELYKEMQKRGWDVKESAVMAITANELDTARRRTTGSMDALKAAGFPEKQIYQVPTKSEDIPGAFDAANSMLVQHPEVKHWLIVGMNDSTVLGGVRATEGQGFKAADIIGIGINGVDAVSELSKAQATGFYGSLLPSPDVHGYKSSEMLYNWVAKDVEPPKFTEVTDVVLITRDNFKEECEKKGLGGK | soluble |
| MSLRSIPSALQAKLDSGATTLARCWIVTRRDGVVMGFTDHDRDLTIGGVLCRAATGFTASEATSRFDLAVDGGEISGAFSDDSLSEADLAAGRYDAAGVATWLVDWSDVSLRIMIARGTIGEVRREGAAFTAELRGLADALAQDSGRLFTARCGVDLGDGKCRVDLASSAFRRSGTVTAVEGTSIVAVSGMSGLAAGWFTAGRLNWTGGANAGLAIEVKQHRVVAGVVRLSLWRAMAEPIAIGDSFVVTAGCDKSFTTCRDRFANTSNFRGFPQIPGNDFVVSYPLPGSPDNGNGSKALEGHHHHHH | soluble |

---

Assay: soluble on expression in E. coli; label from the status in PepcDB or PDB records

| Residue String | soluble on expression in E. coli |
| --- | --- |
| MAGDSTDKAFQNFAYLLFLRNILTKSNFSETKNKPEAYNQFLFQKLKKILNLFQILQFILENIHCKPGDRIAILFAYSNDLDRNVVKNVWNTADFGFYSHFLVFANVRFDVRQEEEILFHYSYLNATSSVFSKLPDSSLGFGNNATGSDSLKTIDVGKFYSNNQVPVCGSIVLILSKRYPNELKILEVSRKVQEHHGIVHVISSVFPSGGTQSKALYKLTSRTNGICAFQEDSQFSEVSDFINISSKYYDGWHLLSHIVGSLPISGTPYPIYSVNPRVSGLGSLVLPSLSVPFSGRFYFVVTVQDHGPIDTFRSINLSWYNAKSRSSNHFLISNGQKYEINREEWFDLDPVIYNMTLNYSYLTFQDIQIRVYSSRPPEDWLPCCDSTN | not soluble |
| MFNLRPAATLVALAAALSSLPALAEEARYNQISLRAEVNQEVQRDLMLVTLYTEAQDSDPARLAAQITETLNKALGQARQVKDVKIRQGSRNSYPVYDDKGQKITGWRERAELRLESADFAVLSKLTGELLTDLKMGGMDFSISPSTRKTSEDALLKDAVTAFKARAQLVTEALGGKGYKLVNLNLNTSGYPQPYLRAPVMMMAKSSRDESAPTPDVEAGTSQVSVAADGVIEVAIPLEHHHHHH | soluble |
| MKDKIIDNAITLFSEKGYDGTTLDDIAKSVNIKKASLYYHFDSKKSIYEQSVKCCFDYLNNIIMMNQNKSNYSIDALYQFLFEFIFDIEERYIRMYVQLSNTPEEFSGNIYGQIQDLNQSLSKEIAKFYDESKIKMTKEDFQNLILLFLESWYLKASFSQKFGAVEESKSQFKDEVYSLLNIFLKK | not soluble |
| MSSSTSQDFVSRPVIKKVFAKLQKEGDGAVVRRGISRSEQKLLDPFLMLDEFSVSPPAGFPDHPHRGITHQDFKGHKGTIYAGDVQWMTAGRGIIHSEMPEEEVNKEPNYQELSHSDIPKAEQNGVEVKVIAGESMGIQSPVYTRTPTMFLDFTLQPGAQIHQNVPESWNAFAYILESGEGGGVFSSSNSSPIPAHSVVVFGPGNDGVSVWNKSSSKQLRFVLIAGEPIGEPVVQYGPFVMNTQAEIDMTIEDYHYGKNGFEMAKYWRSQ | not soluble |
| NRANPDPNCCLGVFGLSLYTTERDLREVFSKYGPIADVSIVYDQQSRRSRGFAFVYFENVDDAKEAKERANGMELDGRRIRV | soluble |
| MVAPSFPLFNLPQKNLKDVFCNMSVIQQTCISLISEKTRNLVREFHIFKQLQVCLDFIFLPDYHFYLKGSAKFIFIPHNRKFIARSSSGEHSNYSVPQFDAKSWLKHLIYIFNVTEIHSLRSRFFDWDLREPRLKMPKECLKNLKILNLSIGFTNKISLVVELYSAFQHIKKFSLRQYSHKPLDSTLLLELRHLLSKTNQQLCLNINLPLNELLLTSCSSIDIHRTQLTDKDINVFLKHWFAGLKPELEHFRVRKDGPAFNQKTILKGIPHEFASIGRKFKLFEMDSQVGGIDIDLGQDIKATLVFNHKPGIADFSVAVHNSKYFFC | not soluble |
| ANFQYIITEKKGKNSSVGLIQLNRPKALNALCNGLIEELNQALETFEEDPAVGAIVLTGGEKAFAAGADIKEMQNRTFQDCYSGKFLSHWDHITRIKKPVIAAVNGYALGGGCELAMMCDIIYAGEKAQFGQPEILLGTIPGAGGTQRLTRAVGKSLAMEMVLTGDRISAQDAKQAGLVSKIFPVETLVEEAIQCAEKIANNSKIIVAMAKESVNAAFEMTLTEGNKLEKKLFYSTFATDDRREGMSAFVEKRKANFKDH | soluble |
| MKDSLQTIGVFVRPTHYQNPLFEKLEQAKEWVLKLLEDEGFESFMIDSLDGAKDARLIEKADAFLCLGGDGTILGALRMTHSYNKPCFGVRIGNLGFLSAVELNGLKDFLQDFKQDRIKLEEHLALEGRIGKTSFYAINEIVIAKKKALGVLDIKAYAGHTPFNTYKGDGLIIATPLGSTAYNLSAHGPIVHALSQSYILTPLCDFSLTQRPLVLGAEFCLNFCAHEDALVVIDGQATYDLKANQPLYIQKSPTTTKLLQKNSRDYFKVLKEKLLWGESPSKKRLEHHHHHH | soluble |
| MENLKETVDIVVNSRYPEMNREGRELLAQVLIRKELEKGEMLLNEGQISRHMVFVGKGMLRQFYYKNGKDVTEHFSYEGCILMCIESLLKQEPTHLMAEALEPAVVYMLPYDVLQKLLEQSKEINAFYRKVLEYSLIVSQIKADSWRFETARERYNLLLHHHPEIIKRAPLSHIASYLLMTPETLSRVRSGVL | not soluble |
| MEVVKMPFGVPGWKWKVGKFGYTVENEPNYEEIKAKAKEVLSRTTKGIAWRGHCGSLHIPLVFEGQIIGELWEDADPKEVEIGAYWFGKWGIKVQLVKDGRVIGFIWLA | soluble |
| MLMDGHTHTELCPHGSGEATEKMIQRAIQLGFQRYCITEHAPLPPAFRDQYEGTPAGYTEASLRENQVADYLALANGLKTKYAGQIEISVGFEVDFLPEHVAWTRDFLNTYGPRTQESILSVHFMRGLRQHFWCVDMSTDDFAAGFGQWLKTPQRVFEQYYQTVLASVQADLGPYAPQRIGHMSLVRKYQDYFGLTEPLDVHNLQLVDQTLALVKQQRRQLDLNLAGLYKPYCNDFYPGEQILQRAQKLDIPLVYGSDAHDIASVGRGYHLIKKLIEGLEHHHHHH | not soluble |
| MGSDKIHHHHHHMKQIAVVSGKGGTGKTTFTASLGVLLENSLLADCDVDASNLYILFPGDPVEEHEYYRGKKAVIDQEKCDRCGICERVCRFDAIIPGEKYGVDQYACEGCNACVVSCPRNAITLVQSLAGRYFFAWSGGKPIVYARLSPGEENSGGLVAEVRKLALEKAKELKRDYVIIDGAPGIGCSATSSIVGVNYVVVVTEPTMSGLHDLKRIVETLKCLKREFGIVINKYDINSVVSREIEDYCLSEGLDLLGKIPFDETVVRASVECKPVVTYENSPAAESIKKIVEKIIEKIS | not soluble |
